# experiment.notes: NCI Yeast Anticancer Drug Screen. Data for the rad50 strain (AID 155);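 note: 0% = growth of vehicle-only cultures of the same strain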
# settings: S. cerevisiae rad50 strain growth inhibition; at 50.0 µM; hits give high values
About 79,000 compounds went through this panel and 15% of them were active in at least one assay; those are over-represented in the sample as a whole.
readout.kind: growth inhibition (%)

INSERT INTO measurements (compound, readout_kind, reported_measurement) VALUES
  ('O=C(O)/C=C\C(=O)Nc1ccc2c(c1)-c1ccccc1C2', 'growth inhibition', -6.95),
  ('COC1/C=C\OC2(C)Oc3c(C)c(O)c4c(c3C2=O)C(=O)C(Br)=C(NC(=O)/C(C)=C\C=C/C(C)C(O)C(C)C(O)C(C)C(OC(C)=O)C1C)C4=O (configuration not stated)', 'growth inhibition', 16.1),
  ('COC(=O)/C(=C/Cl)NC(C)=O', 'growth inhibition', 3.2),
  ('Nc1ccc(N=Nc2ccccc2)c(N)c1', 'growth inhibition', 29.5),
  ('COc1ccc(CC(=O)c2c(OC)c3c(c4c2OC(C)(C)CC4)OC(C)(C)CC3)cc1OC', 'growth inhibition', 21.1),
  ('COc1cc(-c2cc(OC)c(N=N/C(=N/Nc3ccc([N+](=O)[O-])cc3)c3ccc([N+](=O)[O-])cc3)cc2Cl)c(Cl)cc1N=N/C(=N\Nc1ccc([N+](=O)[O-])cc1)c1ccc([N+](=O)[O-])cc1', 'growth inhibition', 7.9),
  ('NC(CC(=O)N/C=N/C(=O)O)C(=O)O (configuration not stated)', 'growth inhibition', -5.85),
  ('CC(=O)[C@H]1CC[C@H]2[C@@H]3CCC4=CC(=O)CC[C@]4(C)[C@H]3C[C@H](OS(=O)(=O)c3ccc(C)cc3)[C@]12C', 'growth inhibition', 20.3),
  ('CCC(CCCN)Nc1cc(OC)cc2c(C)ccnc12 (configuration not stated)', 'growth inhibition', -53.9),
  ('CNC(=O)OCc1c(COC(=O)NC)c2n(c1C)CCS2(=O)=O', 'growth inhibition', -1.25),
  ('CSCCC(NC=O)C(=O)O (configuration not stated)', 'growth inhibition', -0.65),
  ('C/C=C/c1cc(C)cc(C)c1OC(C)CC (configuration not stated)', 'growth inhibition', -2.45),
  ('O=C(O)C1=NN(c2ccc(S(=O)(=O)O)cc2)C(=O)C1N=Nc1ccc(S(=O)(=O)O)cc1 (configuration not stated)', 'growth inhibition', 7.3),
  ('CC(C)(C)CC(C)(C)NS(=O)(=O)NC(C)(C)CC(C)(C)C', 'growth inhibition', 1.1),
  ('COc1ccc(C(SCC(N)C(=O)O)(c2ccccc2)c2ccccc2)cc1 (configuration not stated)', 'growth inhibition', 32.8),
  ('COc1cc(/C=N/NC2=NCCN2)ccc1O', 'growth inhibition', 24.4),
  ('CC(C)NCC(O)c1ccc(O)c2ncccc12 (configuration not stated)', 'growth inhibition', 1.95),
  ('CCOC(=O)c1c(C)cc2ccccn12', 'growth inhibition', -11.4),
  ('COc1cc2oc(=O)ccc2cc1CC=C(C)C', 'growth inhibition', -16.1),
  ('CCOC(=O)C1CC(CCl)OC1=O (configuration not stated)', 'growth inhibition', -3.65),
  ('CCCCCCCCCCCCCCCCSC1=C(Cl)C(=O)C(OC)=C(OC)C1=O', 'growth inhibition', 25.6),
  ('NC1(C(=O)O)CCCC1C(=O)O (configuration not stated)', 'growth inhibition', -8.7);
